Test: chemical genetic growth profiling, strain panel (AID 1159580);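 also: tested at 20 µM; growth read once vehicle control cultures reached saturation at 30 °C; 1 = growth at the plate median or of vehicle wells; lower values mean less growth of the strain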
Conditions: S. cerevisiae deletion strains, growth OD, locus YNL222W, strain SSU72
About 2,000 (36%) of roughly 5,500 compounds were called active. About 18% were inconclusive and are not listed. Rule as the data show it: active = normalized growth mostly below about 0.91 (no sharp cut-off); inconclusive = no clear call, values can overlap the other calls; inactive = mostly above about 0.92. This is one part of the list.
Parameter call: string, one of 1 (active), 0 (inactive)

# example entries with known answers
{"SMILES_STR": "O=[N+]([O-])c1ccccc1CS(=O)(=O)c1nc2ccccc2s1", "CLASS": 1}
{"SMILES_STR": "O=[N+]([O-])/C=C/c1ccc(F)cc1", "CLASS": 1}
{"SMILES_STR": "Cc1c(C)c(C)c(CSC(N)=Nc2ccc(F)cc2)c(C)c1C", "CLASS": 0}
{"SMILES_STR": "N#CCC(=O)NNC(=S)Nc1ccc(Cl)c(Cl)c1", "CLASS": 0}
{"SMILES_STR": "NC(=Nc1ccc(F)cc1)SCc1c(Cl)cccc1Cl", "CLASS": 0}
{"SMILES_STR": "CCOc1ccc(/C=C(\\C)[N+](=O)[O-])cc1OC", "CLASS": 0}

As a next step, examine the molecule that follows.
Q. Outcome? C/C(=C\c1ccc2c(c1)OCO2)[N+](=O)[O-]
A. 1

====

# reported normalized growth; entries follow
Test: chemical genetic growth profiling, strain panel (AID 1159580);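 also: tested at 20 µM; growth read once vehicle control cultures reached saturation at 30 °C; 1 = growth at the plate median or of vehicle wells; lower values mean less growth of the strain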
Settings: S. cerevisiae deletion strains, growth OD, locus YMR058W, strain fet3, active compounds read low
Out of some 5,500 compounds screened, about 2,000 (36%) were called active. Not shown: some 18% with an inconclusive outcome. This is one part of the list.

Some entries whose results are on file:
{"MOLECULE": "NCCCC[C@H](N[C@@H](CCc1ccccc1)C(=O)O)C(=O)N1CCC[C@H]1C(=O)O", "normalized growth": "1.02 (inactive)"}
{"MOLECULE": "Nc1ncnc2c1ncn2C1O[C@H](COP(=O)(O)O)[C@@H](O)[C@H]1O (some centres undefined)", "normalized growth": "1.01 (inactive)"}
{"MOLECULE": "CCN(CC)CCOc1ccc(/C(=C(\\Cl)c2ccccc2)c2ccccc2)cc1", "normalized growth": "0.0872 (active)"}
{"MOLECULE": "O=[N+]([O-])c1cc([As](=O)(O)O)ccc1O", "normalized growth": "0.977 (inactive)"}
{"MOLECULE": "CC/C(=C(\\c1ccccc1)c1ccc(OCCN(C)C)cc1)c1ccccc1", "normalized growth": "0.0718 (active)"}

Q. Give recorded normalized growth. Oc1c(Cl)cc(Cl)c2cccnc12
A. 0.0638 (active)

Q. Give recorded normalized growth. Nc1ncnc2c1ncn2[C@@H]1O[C@H](CO)[C@@H](O)[C@H]1O
A. 0.995 (inactive)

====

Test: chemical genetic growth profiling, strain panel (AID 1159580);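 also: tested at 20 µM; growth read once vehicle control cultures reached saturation at 30 °C; 1 = growth at the plate median or of vehicle wells; lower values mean less growth of the strain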
Conditions: S. cerevisiae deletion strains, growth OD, locus YPL204W, strain HRR25
Among all 5,500 compounds or so, about 2,000 (36%) were called active. About 18% were inconclusive and are not listed. No stated cut-off is given here; in the data, active means normalized growth mostly below about 0.91 (no sharp cut-off); inconclusive means no clear call, values can overlap the other calls; inactive means mostly above about 0.92. This is one part of the list.
Parameter call: string, one of active, inactive

# example entries with known answers
{"MOLECULE": "OC(CNCc1ccc(Cl)cc1)CO/N=C\\C1=C(Cl)c2cc(Cl)ccc2OC1 (stereo not given)", "CLASS": "inactive"}
{"MOLECULE": "CCOC(=O)/C(=N/Nc1c(Cl)cccc1Cl)c1csc(N)n1", "CLASS": "inactive"}
{"MOLECULE": "N#CC(C#N)=C/C=C(/Sc1nc2ccccc2s1)c1ccc(Br)cc1", "CLASS": "active"}

Q. Outcome? O=[N+]([O-])c1cc(Br)cnc1Sc1nnc(SCC2CC2)s1
A. inactive

Q. Outcome? O=C(NCCSCc1cccc(C(F)(F)F)c1)Nc1cccc(C(F)(F)F)c1
A. inactive

Q. Outcome? O=[N+]([O-])c1ccccc1CS(=O)(=O)c1nc2ccccc2s1
A. inactive

Q. Outcome? O=C(NCc1ccncc1)c1ccc(-n2cccn2)cc1
A. inactive

Q. Outcome? N#CC(C#N)=C/C=C(/Sc1ccc(F)c(Cl)c1)c1ccc(Cl)cc1
A. inactive

Q. Outcome? O=[N+]([O-])/C=C/c1ccc(F)cc1
A. active

Q. Outcome? O=C(Nc1ccc(N2CCOCC2)cc1)c1ccc(-n2cccn2)cc1
A. inactive
